The measurements presented in this section are drawn from PubChem BioAssay AID485314.

biological target: DNA polymerase beta (Homo sapiens) (UniProt P06746); test: qHTS Assay for Inhibitors of DNA Polymerase Beta; conditions: Pol beta primer extension/strand displacement, fluorescence kinetic; series mostly up to 114 µM
Among all 340,000 compounds or so, about 4,500 (1.3%) were called active. Roughly 5% stayed inconclusive and do not appear here. This is one part of a sample in which actives are shown more often than they occur.
MEASURED PROPERTY: outcome

Cc1ccc(-c2nn(CCC#N)cc2C(=O)O)cc1C :: inactive
Cc1ccc(NC(=O)N(Cc2ccc3c(c2)OCO3)C2CCN(Cc3ccccc3)CC2)cc1F :: inactive
CCN1CCN(c2nc3c(c(=O)[nH]2)CCC3)CC1 :: inactive
